Reported values of SF250μM (stabilization factor) for individual entries
# target.entity: 14-3-3ζ/Tau pS2 peptide interaction (Homo sapiens, UniProt P63104)
# Construct: made in house; host or cells: NiCo21 (DE3) E. coli
# assay.procedure: Fluorescence anisotropy 14-3-3ζ titration in the presence of 250 μM compound and Tau pS2 peptide
# Type: binding
# study.conditions: 250 μM compound; apparent KD compared to internal DMSO reference
Answer with the value's number alone.

Worked examples, 4 molecules total:
{"columns": ["molecule", "target.entity", "observed.result"],
 "data": [
  ["O=Cc1ccc(-n2ccnc2-c2ccc(I)cc2)cc1Br [Compound 15]", "14-3-3ζ/Tau pS2 peptide interaction (Homo sapiens, UniProt P63104)", 3.1],
  ["O=Cc1ccc(-n2ccnc2-c2ccc(Cl)cc2)cc1Br [Compound 14]", "14-3-3ζ/Tau pS2 peptide interaction (Homo sapiens, UniProt P63104)", 8.9],
  ["O=Cc1ccc(-n2ccnc2-c2ccc(OC(F)(F)F)cc2)cc1Br [Compound 21]", "14-3-3ζ/Tau pS2 peptide interaction (Homo sapiens, UniProt P63104)", 11],
  ["Cc1cccc(-c2nccn2-c2ccc(C=O)c(Br)c2)c1 [Compound 6]", "14-3-3ζ/Tau pS2 peptide interaction (Homo sapiens, UniProt P63104)", 10]
]}

Return the recorded SF250μM (stabilization factor) value; entry: O=Cc1ccc(-n2ccnc2-c2ccccc2)cc1Br [Compound 1]
23

Specify SF250μM (stabilization factor) for O=Cc1ccc(-n2c(-c3ccc(OCCO)cc3)nc3ccccc32)cc1Br [Compound 31] and stop.
19

Give a short answer stating reported SF250μM (stabilization factor) for O=Cc1ccc(-n2ccnc2-c2ccccc2)cc1I [Compound 26] .
1.8

Please report SF250μM (stabilization factor) for the following molecule: O=Cc1ccc(-n2ccnc2-c2ccccc2Cl)cc1Br [Compound 5]
7.5

Read the entry O=Cc1ccc(-n2ccnc2-c2ccccc2)cc1C(F)(F)F [Compound 27] and write its reported SF250μM (stabilization factor).
6.1

Name the recorded SF250μM (stabilization factor) of the molecule listed here: O=Cc1ccc(-n2ccnc2-c2ccc(F)cc2)cc1Br [Compound 13]
33

Supply SF250μM (stabilization factor) value. Item: O=Cc1ccc(-n2c(-c3cccnc3)nc3ccccc32)cc1Br [Compound 2]
20

Could you please provide reported SF250μM (stabilization factor) for O=Cc1ccc(-n2ccnc2-c2ccccc2)cc1Cl [Compound 25] ? Thanks!
15

Using the record for CCc1ccc(-c2nccn2-c2ccc(C=O)c(Br)c2)cc1 [Compound 18] , state its measured SF250μM (stabilization factor).
37

Please supply the value of reported SF250μM (stabilization factor) for the item Cc1ccc(-c2nccn2-c2ccc(C=O)c(Br)c2)cc1 [Compound 11]
29

###

# target.entity: 14-3-3ζ/Tau pS2 peptide interaction (Homo sapiens, UniProt P63104)
# Construct: made in house; host or cells: NiCo21 (DE3) E. coli
# Sequence (P63104 1-245): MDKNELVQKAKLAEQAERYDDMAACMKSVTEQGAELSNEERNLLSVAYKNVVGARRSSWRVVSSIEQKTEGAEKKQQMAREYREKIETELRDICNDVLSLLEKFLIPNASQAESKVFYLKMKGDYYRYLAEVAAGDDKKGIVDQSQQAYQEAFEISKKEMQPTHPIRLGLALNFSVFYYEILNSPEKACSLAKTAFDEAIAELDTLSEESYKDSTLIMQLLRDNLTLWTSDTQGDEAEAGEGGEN
# assay.procedure: Fluorescence anisotropy 14-3-3ζ titration in the presence of 250 μM compound and Tau pS2 peptide
# Assay type: binding
# study.conditions: 250 μM compound; apparent KD compared to internal DMSO reference
Doc: threshold 8 (exclusive). Items with SF250μM (stabilization factor) beneath it return 1; others return 0.

{"columns": ["mol", "assigned.label"],
 "data": [
  ["O=Cc1ccc(-n2ccnc2-c2ccc(N3CCOCC3)cc2)cc1Br", 0],
  ["COc1ccc(-c2nc3ccccc3n2-c2ccc(C=O)c(Br)c2)cc1", 0],
  ["O=Cc1ccc(-n2ccnc2-c2ccc(C(F)(F)F)cc2)cc1Br", 0],
  ["O=Cc1ccc(-n2ccnc2-c2cccc3cccnc23)cc1Br", 1],
  ["N#Cc1ccc(-c2nccn2-c2ccc(C=O)c(Br)c2)cc1", 0]
]}

Query molecule follows.
hey, is SF250μM (stabilization factor) for "Cc1ccccc1-c1nccn1-c1ccc(C=O)c(Br)c1" lower than 8 or not?
0

# credit: paper PMC11892739
